Entries and their measured mortality at 168 h follow.
Experiment: Acute lethality and toxicity, oral administration (gastric probe)
Format: in vivo, Mus musculus
Settings: mouse, in vivo, po, 8000 mg/kg, M. musculus F; oral; 8000 mg/kg; read-out: % mortality at following times after administration 7 days
Procedure: Unless otherwise specified, the research was carried out using: a) Mg-UCD capsules as such; b) the powdered contents of Mg-UCD capsules; CDCA (chenodeoxycholic acid) and UDCA (ursodeoxycholic acid) as pure substance which in all cases was partly dissolved and partly suspended under warm conditions (T = 30°C) in 10% gum arabic mucilage (so as to administer 10-40 ml of liquid per kg orally). […] The LD50 was determined 7 days after administration using the probit method.

compound	mortality at 168 h (%)
C[C@H](CCC(=O)O)[C@H]1CC[C@H]2[C@@H]3[C@H](O)C[C@@H]4C[C@H](O)CC[C@]4(C)[C@H]3CC[C@]12C [Chenodeoxycholic acid]	80
C[C@H](CCC(=O)O)[C@H]1CC[C@H]2[C@@H]3[C@@H](O)C[C@@H]4C[C@H](O)CC[C@]4(C)[C@H]3CC[C@]12C [Ursodeoxycholic acid]	70

---

assay: Acute lethality and toxicity, oral administration (gastric probe); format: in vivo, Mus musculus; settings: mouse, in vivo, po, 2000 mg/kg, M. musculus M; oral; 2000 mg/kg; read-out: % mortality at following times after administration 7 days

smiles repr	mortality at 168 h (%)
C[C@H](CCC(=O)O)[C@H]1CC[C@H]2[C@@H]3[C@H](O)C[C@@H]4C[C@H](O)CC[C@]4(C)[C@H]3CC[C@]12C	0
C[C@H](CCC(=O)O)[C@H]1CC[C@H]2[C@@H]3[C@@H](O)C[C@@H]4C[C@H](O)CC[C@]4(C)[C@H]3CC[C@]12C	0

---

experiment: Acute lethality and toxicity, oral administration (gastric probe); assay type: in vivo, rat; conditions: rat, in vivo, po, 8000 mg/kg, Rat F; oral; 8000 mg/kg; read-out: % mortality at following times after administration 7 days
Entries and their measured mortality at 168 h follow.

smiles repr	unit	mortality at 168 h
C[C@H](CCC(=O)O)[C@H]1CC[C@H]2[C@@H]3[C@H](O)C[C@@H]4C[C@H](O)CC[C@]4(C)[C@H]3CC[C@]12C	%	90
C[C@H](CCC(=O)O)[C@H]1CC[C@H]2[C@@H]3[C@@H](O)C[C@@H]4C[C@H](O)CC[C@]4(C)[C@H]3CC[C@]12C	%	60

---

test: Acute lethality and toxicity, oral administration (gastric probe); type: in vivo, Mus musculus; details: mouse, in vivo, po, 4000 mg/kg, M. musculus M; oral; 4000 mg/kg; read-out: % mortality at following times after administration 7 days

smiles repr	unit	mortality at 168 h
C[C@H](CCC(=O)O)[C@H]1CC[C@H]2[C@@H]3[C@@H](O)C[C@@H]4C[C@H](O)CC[C@]4(C)[C@H]3CC[C@]12C	%	20
C[C@H](CCC(=O)O)[C@H]1CC[C@H]2[C@@H]3[C@H](O)C[C@@H]4C[C@H](O)CC[C@]4(C)[C@H]3CC[C@]12C	%	30

---

Assay: Acute lethality and toxicity, oral administration (gastric probe)
Assay type: in vivo, rat
Conditions: rat, in vivo, po, 2000 mg/kg, Rat M; oral; 2000 mg/kg; read-out: % mortality at following times after administration 7 days
Description: Unless otherwise specified, the research was carried out using: a) Mg-UCD capsules as such; b) the powdered contents of Mg-UCD capsules; CDCA (chenodeoxycholic acid) and UDCA (ursodeoxycholic acid) as pure substance which in all cases was partly dissolved and partly suspended under warm conditions (T = 30°C) in 10% gum arabic mucilage (so as to administer 10-40 ml of liquid per kg orally). […] The LD50 was determined 7 days after administration using the probit method.
Entries and their measured mortality at 168 h follow.

smiles repr	mortality at 168 h (%)
C[C@H](CCC(=O)O)[C@H]1CC[C@H]2[C@@H]3[C@H](O)C[C@@H]4C[C@H](O)CC[C@]4(C)[C@H]3CC[C@]12C	0
C[C@H](CCC(=O)O)[C@H]1CC[C@H]2[C@@H]3[C@@H](O)C[C@@H]4C[C@H](O)CC[C@]4(C)[C@H]3CC[C@]12C	0

---

Entries and their measured mortality at 168 h follow.
experiment: Acute lethality and toxicity, oral administration (gastric probe); type: in vivo, Mus musculus; conditions: mouse, in vivo, po, 2000 mg/kg, M. musculus F; oral; 2000 mg/kg; read-out: % mortality at following times after administration 7 days

smiles repr	mortality at 168 h [%]
C[C@H](CCC(=O)O)[C@H]1CC[C@H]2[C@@H]3[C@H](O)C[C@@H]4C[C@H](O)CC[C@]4(C)[C@H]3CC[C@]12C	0
C[C@H](CCC(=O)O)[C@H]1CC[C@H]2[C@@H]3[C@@H](O)C[C@@H]4C[C@H](O)CC[C@]4(C)[C@H]3CC[C@]12C	0
